biological target: T1, Full length recombinant HBcAg (rHBcAg) encompassing residues 1-183 (hepatitis B virus, UniProt P03146 1-183); assay: competition EIA, HBcAg coated 1 ug/ml, peptide 50 ug/ml before mAb 4-2 (competitor); OD of bound mAb
T1 construct: range 1-183; also called hepatitis B virus core antigen
T1 sequence (P03146 whole entry, the tested form may be a part): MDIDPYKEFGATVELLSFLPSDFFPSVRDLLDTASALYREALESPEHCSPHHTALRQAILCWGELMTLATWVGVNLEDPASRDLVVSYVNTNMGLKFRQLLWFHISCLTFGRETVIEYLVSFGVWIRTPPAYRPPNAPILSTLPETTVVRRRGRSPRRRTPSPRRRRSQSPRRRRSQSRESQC

| BINDER | READOUT_UNIT | OD at 490 nm |
| --- | --- | --- |
| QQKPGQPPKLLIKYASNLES [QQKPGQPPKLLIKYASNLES (SEQ. ID. No. 19)] | OD | 0.383 |
| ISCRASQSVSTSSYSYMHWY [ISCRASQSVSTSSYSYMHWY (SEQ. ID. No. 17)] | OD | 0.402 |
| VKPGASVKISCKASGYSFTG (also called Peptide # 25) [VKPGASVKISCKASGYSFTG (SEQ. ID. No. 28)] | OD | 0.312 |
| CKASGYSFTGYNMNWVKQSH (also called Peptide # 26) [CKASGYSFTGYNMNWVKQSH (SEQ. ID. No. 29)] | OD | 0.337 |
| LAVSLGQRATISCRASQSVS [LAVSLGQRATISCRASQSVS (SEQ. ID. No. 16)] | OD | 0.364 |
| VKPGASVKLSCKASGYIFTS (also called Peptide # 2; Pept. #2) [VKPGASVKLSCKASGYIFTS (SEQ. ID. No. 5)] | OD | 0.188 |
